Data provenance is ChEMBL document CHEMBL3112435.

System: Plasmodium falciparum
protocol: Antimalarial activity against chloroquine-resistant Plasmodium falciparum W2 after 48 hrs by flow cytometry
Format: functional, organism-based
test.settings: W2, 48 h
metric: IC50 (nM)
Numbers only, in nM.

compound="O=C1C(O)c2cc(F)ccc2N1CCCCn1cc(COc2ccc(CNNc3ccnc4cc(Cl)ccc34)cc2)nn1 (centres undefined)" units_of_measure=nM data_value=164
compound=O=C1C(=O)N(CCCn2cc(COc3ccc(/C=N/Nc4ccnc5cc(Cl)ccc45)cc3)nn2)c2ccc(F)cc21 units_of_measure=nM data_value=288
compound="O=C1C(O)c2ccccc2N1CCCn1cc(COc2ccc(CNNc3ccnc4cc(Cl)ccc34)cc2)nn1 (centres undefined)" units_of_measure=nM data_value=339
compound=O=C1C(=O)N(CCCn2cc(COc3ccc(/C=N/Nc4ccnc5cc(Cl)ccc45)cc3)nn2)c2ccc(Cl)cc21 units_of_measure=nM data_value=346
compound="Cc1ccc2c(c1)C(O)C(=O)N2CCn1cc(COc2ccc(CNNc3ccnc4cc(Cl)ccc34)cc2)nn1 (centres undefined)" units_of_measure=nM data_value=320

List IC50 for every entry below, keeping the order given.
1. O=C1C(O)c2cc(F)ccc2N1CCCn1cc(COc2ccc(CNNc3ccnc4cc(Cl)ccc34)cc2)nn1 (centres undefined)
2. O=C1C(O)c2ccccc2N1CCn1cc(COc2ccc(CNNc3ccnc4cc(Cl)ccc34)cc2)nn1 (centres undefined)
3. O=C1C(=O)N(CCCCn2cc(COc3ccc(/C=N/Nc4ccnc5cc(Cl)ccc45)cc3)nn2)c2ccc(F)cc21
4. Cc1ccc2c(c1)C(O)C(=O)N2CCCn1cc(COc2ccc(CNNc3ccnc4cc(Cl)ccc34)cc2)nn1 (centres undefined)
5. O=C1C(O)c2cc(F)ccc2N1CCn1cc(COc2ccc(CNNc3ccnc4cc(Cl)ccc34)cc2)nn1 (centres undefined)

[206, 128, 134, 509, 112]

List IC50 for every entry below, keeping the order given.
1. O=C1C(O)c2ccccc2N1CCCCn1cc(COc2ccc(CNNc3ccnc4cc(Cl)ccc34)cc2)nn1 (centres undefined)
2. C[C@@H]1CC[C@H]2[C@@H](C)C(=O)O[C@@H]3O[C@@]4(C)CC[C@@H]1[C@]32OO4 [ARTEMISININ]
3. O=C1C(=O)N(CCn2cc(COc3ccc(/C=N/Nc4ccnc5cc(Cl)ccc45)cc3)nn2)c2ccccc21
4. Cc1ccc2c(c1)C(=O)C(=O)N2CCCCn1cc(COc2ccc(/C=N/Nc3ccnc4cc(Cl)ccc34)cc2)nn1
5. O=C1C(=O)N(CCCn2cc(COc3ccc(/C=N/Nc4ccnc5cc(Cl)ccc45)cc3)nn2)c2ccccc21

[69, 7, 118, 204, 165]
